Field: TGI. Provide a value for each of the compounds that follow.
System: SW-620 colon
Test: NCI tumour cell line growth inhibition, 48 h
Answers are plain numbers, in µM.

CC(C)S(=O)(=O)n1c(N)nc2ccc(/C(=N/O)c3ccccc3)cc21 : 45.3

With those in mind, consider the next compound.
Field TGI (SW-620 colon), entry "O=c1c2cc(Cl)ccc2n2nnc3ccc(NCCNCCO)c1c32" : 2.51

----------
System: DLD-1 colon
Assay: NCI tumour cell line growth inhibition, 48 h
measured_parameter: TGI

O=C1C=Cc2noc3cccc1c23 : 3.13 µM
CC(C)S(=O)(=O)n1c(N)nc2ccc(/C(=N/O)c3ccccc3)cc21 : > 100 µM
O=C1CCCC2COc3ccc(O)c1c32 (stereo not given) : > 100 µM
Clc1ccc(CCN2CCOCC2)c(Cl)c1 : > 100 µM

We now examine a further compound.
# TGI of "CCCCCCCCSC(SCCCCCCCC)=C1C(=O)N(c2ccccc2)N=C1C" = 50 µM
